target: human V1b receptors (Homo sapiens, UniProt P47901); construct: expressed in transfected cells; preparation V1b-3H2; experiment: Vasopressin V1b receptor binding assay; conditions: membranes from CHO-K1 cells with human V1b receptors, 3H-AVP displacement; read-out: V1b Ki
Sequence (P47901 whole entry): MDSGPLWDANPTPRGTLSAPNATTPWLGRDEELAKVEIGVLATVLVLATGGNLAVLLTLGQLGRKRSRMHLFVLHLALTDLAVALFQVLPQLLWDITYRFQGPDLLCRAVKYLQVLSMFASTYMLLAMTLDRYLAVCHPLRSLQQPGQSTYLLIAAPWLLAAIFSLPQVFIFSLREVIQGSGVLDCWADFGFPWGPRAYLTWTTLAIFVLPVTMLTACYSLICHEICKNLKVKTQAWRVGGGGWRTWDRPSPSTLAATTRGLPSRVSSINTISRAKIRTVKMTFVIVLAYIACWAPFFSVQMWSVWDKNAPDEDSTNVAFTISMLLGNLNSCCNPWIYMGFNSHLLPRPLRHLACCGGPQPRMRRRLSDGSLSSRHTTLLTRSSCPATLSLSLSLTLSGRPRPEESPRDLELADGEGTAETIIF
pKi: −log10 of the molar value.
value-kind: pKi

molecule	pKi
CCOc1ccccc1C1(OC(=O)N2CCN(c3nccs3)CC2)C(=O)N(S(=O)(=O)c2ccsc2)c2ccc(C#N)cc21 (stereo not drawn) [Example 8]	6.30 to 7.30
CCOc1ccccc1C1(NC(=O)N2CCN(c3ccc(C#N)cn3)CC2)C(=O)N(S(=O)(=O)c2ccsc2)c2ccc(C#N)cc21 (stereo not drawn) [Example 10]	6.30 to 7.30

Now consider a different molecule.
Asked: Could you share which pKi value was measured for CCOc1ccccc1C1(OC(=O)N2CCN(c3ccncc3)CC2)C(=O)N(S(=O)(=O)c2cccc3cccnc23)c2ccc(C#N)cc21 (stereo not drawn) [Example 12] ?
Given back: > 7.30
